Overview of reported Relative activity of maturated deamidase (% initial rate) across a group of binders:
Biological target: T1, Chryseobacterium sp-62563 deamidase polypeptide (second polypeptide, deamidase domain), wildtype (Chryseobacterium sp-62563)
T1 sequence: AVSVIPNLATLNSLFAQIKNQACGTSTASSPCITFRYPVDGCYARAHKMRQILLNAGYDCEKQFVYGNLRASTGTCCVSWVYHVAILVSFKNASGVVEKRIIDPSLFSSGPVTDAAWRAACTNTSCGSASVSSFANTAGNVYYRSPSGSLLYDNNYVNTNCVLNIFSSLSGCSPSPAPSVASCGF
Assay: cell-based or functional assay

Take a look at these entries with their results.
binder	test result
Chryseobacterium sp-62563 propeptide Y45A (protein) NQDPNLVAKESNETAMKDFGKTVPVGIEKEDGKFKISFMVTAQPAEIKDSKENAAYISMIKTAVENETPIHVFLKANTNEIAKVDKATDDDIRYFKSVFTKEVKEENRK	40
Chryseobacterium sp-62563 propeptide V98T (protein) NQDPNLVAKESNETAMKDFGKTVPVGIEKEDGKFKISFMVTAQPYEIKDSKENAAYISMIKTAVENETPIHVFLKANTNEIAKVDKATDDDIRYFKSTFTKEVKEENRK	70
Chryseobacterium sp-62563 propeptide V98C (protein) NQDPNLVAKESNETAMKDFGKTVPVGIEKEDGKFKISFMVTAQPYEIKDSKENAAYISMIKTAVENETPIHVFLKANTNEIAKVDKATDDDIRYFKSCFTKEVKEENRK	65
Chryseobacterium sp-62563 propeptide F95Y (protein) NQDPNLVAKESNETAMKDFGKTVPVGIEKEDGKFKISFMVTAQPYEIKDSKENAAYISMIKTAVENETPIHVFLKANTNEIAKVDKATDDDIRYYKSVFTKEVKEENRK	27
Chryseobacterium sp-62563 propeptide E67L (protein) NQDPNLVAKESNETAMKDFGKTVPVGIEKEDGKFKISFMVTAQPYEIKDSKENAAYISMIKTAVENLTPIHVFLKANTNEIAKVDKATDDDIRYFKSVFTKEVKEENRK	55

Q: Give the reported value of Relative activity of maturated deamidase (% initial rate) for this record: Chryseobacterium sp-62563 propeptide Y94R (protein) NQDPNLVAKESNETAMKDFGKTVPVGIEKEDGKFKISFMVTAQPYEIKDSKENAAYISMIKTAVENETPIHVFLKANTNEIAKVDKATDDDIRRFKSVFTKEVKEENRK
Ans: 52

Q: Identify the reported Relative activity of maturated deamidase (% initial rate) for the following entry. Chryseobacterium sp-62563 propeptide R93P (protein) NQDPNLVAKESNETAMKDFGKTVPVGIEKEDGKFKISFMVTAQPYEIKDSKENAAYISMIKTAVENETPIHVFLKANTNEIAKVDKATDDDIPYFKSVFTKEVKEENRK
Ans: > 100

Q: Look up and report measured Relative activity of maturated deamidase (% initial rate) for this entry: Chryseobacterium sp-62563 propeptide I92K (protein) NQDPNLVAKESNETAMKDFGKTVPVGIEKEDGKFKISFMVTAQPYEIKDSKENAAYISMIKTAVENETPIHVFLKANTNEIAKVDKATDDDKRYFKSVFTKEVKEENRK
Ans: 32

Q: Specify Relative activity of maturated deamidase (% initial rate) for Chryseobacterium sp-62563 propeptide F95I (protein) NQDPNLVAKESNETAMKDFGKTVPVGIEKEDGKFKISFMVTAQPYEIKDSKENAAYISMIKTAVENETPIHVFLKANTNEIAKVDKATDDDIRYIKSVFTKEVKEENRK and stop.
Ans: 58

Q: Could you please provide reported Relative activity of maturated deamidase (% initial rate) for Chryseobacterium sp-62563 propeptide K101S (protein) NQDPNLVAKESNETAMKDFGKTVPVGIEKEDGKFKISFMVTAQPYEIKDSKENAAYISMIKTAVENETPIHVFLKANTNEIAKVDKATDDDIRYFKSVFTSEVKEENRK ? Thanks!
Ans: 29

Q: Tell me its Relative activity of maturated deamidase (% initial rate) given Chryseobacterium sp-62563 propeptide V98Y (protein) NQDPNLVAKESNETAMKDFGKTVPVGIEKEDGKFKISFMVTAQPYEIKDSKENAAYISMIKTAVENETPIHVFLKANTNEIAKVDKATDDDIRYFKSYFTKEVKEENRK as the entry.
Ans: 31

Q: Entry Chryseobacterium sp-62563 propeptide K35E (protein) NQDPNLVAKESNETAMKDFGKTVPVGIEKEDGKFEISFMVTAQPYEIKDSKENAAYISMIKTAVENETPIHVFLKANTNEIAKVDKATDDDIRYFKSVFTKEVKEENRK needs its Relative activity of maturated deamidase (% initial rate) filled in; supply it.
Ans: > 100

Q: Return the recorded Relative activity of maturated deamidase (% initial rate) value; entry: Chryseobacterium sp-62563 propeptide K109G (protein) NQDPNLVAKESNETAMKDFGKTVPVGIEKEDGKFKISFMVTAQPYEIKDSKENAAYISMIKTAVENETPIHVFLKANTNEIAKVDKATDDDIRYFKSVFTKEVKEENRG
Ans: 29

Q: Please look at this binder and report its Relative activity of maturated deamidase (% initial rate): Chryseobacterium sp-62563 propeptide K101C (protein) NQDPNLVAKESNETAMKDFGKTVPVGIEKEDGKFKISFMVTAQPYEIKDSKENAAYISMIKTAVENETPIHVFLKANTNEIAKVDKATDDDIRYFKSVFTCEVKEENRK
Ans: 38

Q: Give reported Relative activity of maturated deamidase (% initial rate) value for Chryseobacterium sp-62563 propeptide P69G (protein) NQDPNLVAKESNETAMKDFGKTVPVGIEKEDGKFKISFMVTAQPYEIKDSKENAAYISMIKTAVENETGIHVFLKANTNEIAKVDKATDDDIRYFKSVFTKEVKEENRK
Ans: 35

Q: Consider the binder Chryseobacterium sp-62563 propeptide F95N (protein) NQDPNLVAKESNETAMKDFGKTVPVGIEKEDGKFKISFMVTAQPYEIKDSKENAAYISMIKTAVENETPIHVFLKANTNEIAKVDKATDDDIRYNKSVFTKEVKEENRK . State its measured Relative activity of maturated deamidase (% initial rate).
Ans: 85

// provenance: patent US20250215412A1
